experiment: Human HepG2 cell viability assay in 384 well format; format: toxicity, cell-based; parameters: dose 125 nL, time 70.5 hour; concentration not given beside the values; conditions: HepG2 cells, read-out: Inhibition

compound: CN(CCc1cccs1)CCc1nccs1
cytotoxicity at 70.5 h (%): 0.685
//
compound: Cc1c(C(=O)NC2=NCCS2)cnn1-c1ccc(Cl)cc1
cytotoxicity at 70.5 h (%): -3.08
//
compound: CCOC(=O)CNC(=O)NCc1cccn1Cc1ccccc1
cytotoxicity at 70.5 h (%): -13.4
//
compound: O=C(NC1CC1)c1cc(C(F)(F)F)cc(C(F)(F)F)n1
cytotoxicity at 70.5 h (%): -9.57
//
compound: c1c2c(nn1CC1CCOCC1)C(CNC1CCOCC1)OCC2 (configuration not stated)
cytotoxicity at 70.5 h (%): 7.06
//
compound: NC1CCc2c(ccc(=O)n2Cc2ccncc2)C1 (configuration not stated)
cytotoxicity at 70.5 h (%): 2.44
//
compound: O=C1CCCc2[nH]c(=O)c(C(=O)N3CCc4ccccc4C3)cc21
cytotoxicity at 70.5 h (%): 0.27
//
compound: CC(C)(NC(=O)CCc1ccco1)c1ccc2c(c1)OCCO2
cytotoxicity at 70.5 h (%): -2.91
//
compound: COC(=O)CCN(CC1CCOC1)C1CC1 (configuration not stated)
cytotoxicity at 70.5 h (%): 0.428
//
compound: CCC(=O)NCc1cc(Br)c(OC)c(OC)c1
cytotoxicity at 70.5 h (%): -0.621
//
compound: COCCN1CCCC2(CCN(c3nccnc3N(C)C)C2)C1=O (configuration not stated)
cytotoxicity at 70.5 h (%): -14.9
//
compound: COCC(=O)N1CCC2(CC1)CC(COC)N(c1ncccn1)C2 (configuration not stated)
cytotoxicity at 70.5 h (%): -5.32

* * *

Quick reference: cytotoxicity at 70.5 h of the listed items.
experiment: Human HepG2 cell viability assay in 384 well format; format: toxicity, cell-based; design: dose 125 nL, time 70.5 hour; concentration not given beside the values; conditions: HepG2 cells, read-out: Inhibition

molecule: CCN(C)C[C@@H]1CN(Cc2cccc(O)c2)C[C@@H]1CO
cytotoxicity at 70.5 h (%): -11.8
//
molecule: Cc1cnn(CC2CCCN2C(=O)c2cc(O)nc3ccccc23)c1 (stereo not drawn)
cytotoxicity at 70.5 h (%): -7.86
//
molecule: Cc1cc(C)c(CNC(=O)NC2CCN(C(=O)C(C)C)CC2)c(C)c1
cytotoxicity at 70.5 h (%): -10.6
//
molecule: CCOc1ccc(NC(=O)NCc2cccnc2OCC)cc1
cytotoxicity at 70.5 h (%): -9.72
//
molecule: CCc1cc(N2CCNCC2)n2nc(C)c(C)c2n1
cytotoxicity at 70.5 h (%): -3.36
//
molecule: CCc1nc(C)c(C(=O)N2CCNCC2C(=O)Nc2ccc(C)nc2)o1 (stereo not drawn)
cytotoxicity at 70.5 h (%): -3.52
//
molecule: Cn1nc(C2CN(C(=O)c3cccnc3)C2)c2nccnc21
cytotoxicity at 70.5 h (%): -3.75
//
molecule: O=C(c1cc(Cl)c2c(c1)OCO2)N1CCN(c2cnccn2)CC1
cytotoxicity at 70.5 h (%): 0.695
//
molecule: CSCCC(=O)N1CC[C@@H](N2CCN(c3ccccc3F)CC2)[C@H](O)C1
cytotoxicity at 70.5 h (%): 33.8
//
molecule: COC[C@H]1CN(CC2CC2)C(=O)[C@@H]2CCN(Cc3ccoc3)CC[C@H]12
cytotoxicity at 70.5 h (%): -4.84
//
molecule: COCCN1C(=O)CC[C@]12CC[C@@H](NCc1cccnc1OC)CC2
cytotoxicity at 70.5 h (%): -2.58
//
molecule: CCn1cnnc1Cc1nc2c([nH]1)CC(c1ccc(Cl)cc1)CNC2=O (stereo not drawn)
cytotoxicity at 70.5 h (%): 6.53
//
molecule: COc1ccc(OC)c(C(=O)N(C)Cc2nnc3ccccn23)c1
cytotoxicity at 70.5 h (%): -15.1
//
molecule: CNC(=O)c1cc2c(nc1N(C)C)CCN(c1ncc(C)cn1)CC2
cytotoxicity at 70.5 h (%): -6.83
//
molecule: Cc1ccc(N(C)C2CCN(C(=O)c3ccsc3)CC2)nn1
cytotoxicity at 70.5 h (%): -13.8
//
molecule: CC(C)CCN1CCc2cc(C(=O)N(C)C)c(NCC3CC3)nc2CC1
cytotoxicity at 70.5 h (%): 5.09
//
molecule: Cc1nc(N(C)C)nc(N(C)CCc2ccncc2)c1C
cytotoxicity at 70.5 h (%): -15.2
//
molecule: COCC(=O)N1CCCC2(CCN(Cc3cccc(C)n3)C2=O)C1 (stereo not drawn)
cytotoxicity at 70.5 h (%): -0.526
//
molecule: Cc1nc(C2CCN(C(=O)c3ccc(=O)n(C)c3)CC2)c2sccn12
cytotoxicity at 70.5 h (%): 2.35
//
molecule: Cc1ccc(C(=O)N2C[C@@H]3CCCO[C@@H]3[C@H](N3CCCC3)C2)cn1
cytotoxicity at 70.5 h (%): 0.948
//
molecule: Cc1nc(C2CCCN2CC(=O)NCCc2ccc(Cl)cc2)no1 (stereo not drawn)
cytotoxicity at 70.5 h (%): -2.31
//
molecule: CCc1ccc(C(=O)N2CC[C@H](Oc3cccnc3C)[C@@H](O)CC2)cc1
cytotoxicity at 70.5 h (%): 14.4
//
molecule: O=C1CCCN1CCCC(=O)N1CCC2(CC1)[C@H](O)C[C@@H]2O
cytotoxicity at 70.5 h (%): -0.254
